Listed compounds paired with reported Lethal ratio (Death number/Experimental number)
- Test system: ddY strain male
- protocolSummary: Acute toxicity test, method-(2), intraperitoneal injection
- Format: in vivo, ddY strain male (4 weeks old)
- setupConditions: 400 mg/kg, 7 days

[
  {
    "smi": "Cc1ccc(CNc2cnn(C(C)C)c(=O)c2Cl)cc1",
    "experimentalTarget": "ddY strain male",
    "observed": "0/2"
  }
]

Find the recorded Lethal ratio (Death number/Experimental number) belonging to `COc1ccc(CNc2cnn(C(C)C)c(=O)c2Cl)c(OC)c1` and report it.
0/1

###

- Test system: SRS-A
- protocolSummary: SRS-A antagonism in guinea-pig ileum (SRS-A-induced contraction)
- Format: cell-based
- setupConditions: Cavia porcellus, 1 min, test compound 5×10^-7 g/ml, isolated guinea-pig ileum
measuredProperty: inhibition at 0.5 µg/mL (%)
Give just the number in %; leave the unit off.

[
  {
    "smi": "CC(C)(C)n1ncc(NCc2ccc(C(=O)O)cc2)c(Cl)c1=O",
    "measuredProperty": "inhibition at 0.5 µg/mL",
    "unitSymbol": "%",
    "observed": 18
  },
  {
    "smi": "CCCOc1ccc(CNc2cnn(C(C)(C)C)c(=O)c2Cl)cc1",
    "measuredProperty": "inhibition at 0.5 µg/mL",
    "unitSymbol": "%",
    "observed": 74
  },
  {
    "smi": "COc1ccc(CNc2cnn(C(C)(C)C)c(=O)c2Cl)cc1C",
    "measuredProperty": "inhibition at 0.5 µg/mL",
    "unitSymbol": "%",
    "observed": 73
  }
]

What is its inhibition at 0.5 µg/mL for SRS-A? Entry: `CC(C)(C)n1ncc(NCc2ccc(CN3CCOCC3)cc2)c(Cl)c1=O`
41

Request - read-out inhibition at 0.5 µg/mL | tested on SRS-A | compound `Cc1ccc(CNc2cnn(C(C)(C)C)c(=O)c2Cl)cc1`
64

###

Measured inhibition at 0.5 µg/mL by item
- Tested on: SRS-A
- protocolSummary: SRS-A antagonism in guinea-pig ileum (SRS-A-induced contraction)
- Assay type: cell-based
- setupConditions: Cavia porcellus, 1 min, test compound 5×10^-7 g/ml, isolated guinea-pig ileum
Express your answer as a number followed by its unit.

// solved cases for inhibition at 0.5 µg/mL follow
[
  {
    "molecule": "CN1CCN(Cc2ccc(CNc3cnn(C(C)(C)C)c(=O)c3Cl)cc2)CC1",
    "observed": "19%"
  },
  {
    "molecule": "CSc1ccc(CNc2cnn(C(C)(C)C)c(=O)c2Cl)cc1",
    "observed": "77%"
  },
  {
    "molecule": "CCCc1c(OCC(O)COc2ccc3c(=O)cc(C(=O)O)oc3c2CCC)ccc(C(C)=O)c1O (centres unmarked) [FPL-55712, reference compound]",
    "observed": "88%"
  },
  {
    "molecule": "Cc1cccc(CNc2cnn(C(C)(C)C)c(=O)c2Cl)c1",
    "observed": "47%"
  },
  {
    "molecule": "CC(C)(C)n1ncc(NCc2ccc3c(c2)OCO3)c(Cl)c1=O",
    "observed": "74%"
  },
  {
    "molecule": "CCN1CCN(Cc2ccc(CNc3cnn(C(C)(C)C)c(=O)c3Cl)cc2)CC1",
    "observed": "10%"
  }
]

Shift focus to the following entry.
Give its inhibition at 0.5 µg/mL value. Item: `CCOC(=O)c1ccc(CNc2cnn(C(C)(C)C)c(=O)c2Cl)cc1`
72%

###

Lethal ratio (Death number/Experimental number) for assorted compounds
- Test system: ddY strain male
- protocolSummary: Acute toxicity test, method-(2), intraperitoneal injection
- Assay type: in vivo, ddY strain male (4 weeks old)
- setupConditions: 400 mg/kg, 7 days

Known Lethal ratio (Death number/Experimental number) results, listed for orientation:
[
  {
    "compound": "CCOc1cccc(CNc2cnn(C(C)C)c(=O)c2Cl)c1 [Compound No. 89]",
    "observed": "0/1"
  },
  {
    "compound": "Cc1ccc(CNc2cnn(C(C)C)c(=O)c2Cl)c(C)c1 [Compound No. 80]",
    "observed": "0/1"
  },
  {
    "compound": "COc1ccc(CNc2cnn(C(C)C)c(=O)c2Cl)cc1 [Compound No. 87]",
    "observed": "0/2"
  },
  {
    "compound": "CCOc1ccccc1CNc1cnn(CC)c(=O)c1Cl [compound 90]",
    "observed": "0/2"
  },
  {
    "compound": "Cc1ccccc1CNc1cnn(C(C)C)c(=O)c1Cl [compound 78]",
    "observed": "0/1"
  }
]

I'd like to know its Lethal ratio (Death number/Experimental number). The compound in question is CCOc1cccc(CNc2cnn(CC)c(=O)c2Cl)c1 [compound 88]
0/2

Which Lethal ratio (Death number/Experimental number) value belongs to CCCOc1cc(CNc2cnn(C(C)C)c(=O)c2Cl)ccc1OC [Compound No. 106] ?
0/1

What value of measured Lethal ratio (Death number/Experimental number) is listed for Cc1cccc(CNc2cnn(C(C)C)c(=O)c2Cl)c1 [compound 76] ?
0/1

For the compound COc1ccccc1CNc1cnn(C(C)C)c(=O)c1Cl [compound 86] , what Lethal ratio (Death number/Experimental number) is on record?
0/1

###

- Tested on: SRS-A
- protocolSummary: SRS-A antagonism in guinea-pig ileum (SRS-A-induced contraction)
- Type: cell-based
- setupConditions: Cavia porcellus, 1 min, test compound 5×10^-7 g/ml, isolated guinea-pig ileum
Reported inhibition at 0.5 µg/mL values are given for each entry in this list.
The reply should consist of the numeric value with the unit placed after it.

Examples with answers:
[
  {
    "smi": "CCN1CCN(C(=O)c2ccc(CNc3cnn(C(C)(C)C)c(=O)c3Cl)cc2)CC1",
    "inhibition at 0.5 µg/mL": "14%"
  },
  {
    "smi": "CCOc1ccc(CNc2cnn(C(C)(C)C)c(=O)c2Cl)cc1",
    "inhibition at 0.5 µg/mL": "40%"
  }
]

Reported inhibition at 0.5 µg/mL, compound `CCc1ccc(CNc2cnn(C(C)(C)C)c(=O)c2Cl)cc1` : ____
73%

Any idea what inhibition at 0.5 µg/mL was measured for `COc1ccc(CNc2cnn(C(C)(C)C)c(=O)c2Cl)cc1OC` ?
55%
